Test system: A549
Test: NCI tumour cell line growth inhibition, 48 h
Activity calls are given as the source filed them. No stated cut-off is given here; in the data, active = GI50 up to about 1.1 µM and inactive = higher.
Field: GI50. Provide a value for each of the compounds that follow.

## Task Enter measured GI50, system A549, for the compound shown: CC(C)(C)[Si](C)(C)OCC1OC(n2ccc(=O)[nH]c2=O)C(O[Si](C)(C)C(C)(C)C)[C@]12O[C@@H]2CO (stereo partly specified)
## Result 10.9 µM (inactive)

## Task Jot down GI50 (A549) of `Nc1nc(CC2(O)CCCCC2)cc(-c2ccccc2)n1` .
## Result 26.7 µM (inactive)

## Task Fill in GI50 for `O=C1OC(c2ccccc2)=N/C1=C\c1cccc2ccccc12` tested with A549.
## Result > 100 µM (inactive)

## Task Find the measured GI50 of `COc1ccc(NC(=S)NNC(=O)c2nsc3ccccc23)cc1` with A549 as test system.
## Result 37.2 µM (inactive)

## Task Provide the reported GI50 (system: A549) for `COC(=O)Nc1nc2cc(Oc3ccc4nc(NC(=O)OC)[nH]c4c3)ccc2[nH]1`
## Result 2.25 µM (inactive)

## Task Name the recorded GI50 of COC(=O)C1(C)CCc2c(OC)ccc(OC)c2C1=O (stereo unspecified) , assay system A549.
## Result > 100 µM (inactive)

---

System: UACC-62
Test: NCI tumour cell line growth inhibition, 48 h
Calls of active or inactive are those of the source. No stated cut-off is given here; in the data, active = GI50 up to about 1.1 µM and inactive = higher.
Could you please report measured GI50 for the items listed next?

## Task Quote GI50 reported for Cc1ccc(/C=C2\CN(C)CC3C2=NN(c2ccccc2)C3c2ccc(C)cc2)cc1 (centres undefined) please.
## Result > 100 µM (inactive)

## Task Name the recorded GI50 of the compound listed here: `CC[C@]12C=CCN3CC[C@@]4(c5ccc(OC)cc5N(C)[C@H]4[C@@](O)(C(=O)OC)[C@@H]1OC(C)=O)[C@@H]32`
## Result 143 µM (inactive)

## Task Return GI50 (reported value) for this compound: `Cc1c(C)c(S(=O)(=O)N(CCCCCN)OCCCN)c(C)c2c1OC(C)(C)CC2`
## Result 12.9 µM (inactive)

## Task Tell me GI50 reported for `COc1cc2c(c3c1C=CCO3)C(=O)c1ccccc1C2=O`
## Result 47.4 µM (inactive)

## Task Identify GI50 associated with the compound `CC(C)(CO)NC(=O)c1cccs1`
## Result > 100 µM (inactive)

## Task Retrieve GI50 measured for `O=C(O)c1ccc(CI)cc1` and print it.
## Result 10.8 µM (inactive)

## Task In one line, give reported GI50 of the entry `COC(=O)[C@@H](O)[C@]1(C(=O)OC)C2O[C@@H](OC)[C@@H]1CCCCCC[C@H]2O` .
## Result > 100 µM (inactive)

## Task Note GI50 for the compound shown: `COC(=O)[C@H]1[C@H](OC(=O)[C@@H](OC)c2ccccc2)ON2CC[C@@H](OC(=O)c3ccccc3)[C@H]12`
## Result 10.7 µM (inactive)

## Task Recall and state the measured GI50 for `O=c1cc(-c2ccc(O)cc2)n(C2CC2)c2ccccc12` .
## Result 3.91 µM (inactive)

## Task State its GI50 for this compound: CC(C)C(=O)OCC1CCCN2CCCCC12 (centres undefined)
## Result 68.1 µM (inactive)

## Task Provide one value: measured GI50 of `C1CNCCNCCNCCN1`
## Result > 100 µM (inactive)

## Task Return GI50 for the following compound: `Cc1nc2ccccc2n1CCc1nc2ccccc2s1`
## Result 60.8 µM (inactive)

## Task Answer with the recorded GI50 of `CC(=O)Nc1nnc(S(=O)(=O)NC(=S)Nc2ccc(Cl)cc2)s1` only.
## Result > 100 µM (inactive)

## Task Quickly give me recorded GI50 for `CN(C)c1nc(N)nc(CCl)n1`
## Result 18.9 µM (inactive)
